compounds and their reported pIC50
tested on: NCI-H2141; experiment: cells; assay type: functional, cell-based; details: Homo sapiens;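 further: growth inhibition of human NCI-H2141 cells, read out with a cell viability assay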
Description: SANGER: Inhibition of human NCI-H2141 cell growth in a cell viability assay.
pIC50: −log10 of the molar value.

[
  {
    "compound": "O=C(/C=C/c1ccccc1)NC(NC(=S)Nc1cccc2cccnc12)C(Cl)(Cl)Cl (stereo unspecified)",
    "pIC50": "< 4.80"
  },
  {
    "compound": "Cc1cc(Nc2cc(N3CCN(C)CC3)nc(Sc3ccc(NC(=O)C4CC4)cc3)n2)n[nH]1",
    "pIC50": "< 5.70"
  },
  {
    "compound": "Cc1cnc(-c2cnc(NCCNc3ccc(C#N)cn3)nc2-c2ccc(Cl)cc2Cl)[nH]1",
    "pIC50": "< 5.59"
  },
  {
    "compound": "Cc1cc([C@@H](C)Nc2ccccc2C(=O)O)c2nc(N3CCOCC3)cc(=O)n2c1",
    "pIC50": "< 5.29"
  },
  {
    "compound": "C=C1C(=O)O[C@@H]2C3O[C@]3(C)CC/C=C(\\C)CC[C@@H]12 (stereo partly specified)",
    "pIC50": "< 5.30"
  },
  {
    "compound": "CN1CCN(CCOc2cc(OC3CCOCC3)c3c(Nc4c(Cl)ccc5c4OCO5)ncnc3c2)CC1",
    "pIC50": "< 5.70"
  }
]

----------
molecules and their reported pIC50
test system: D-542MG; assay: cells; assay type: functional, cell-based, Homo sapiens; conditions: Homo sapiens, D-542MG
Description: SANGER: Inhibition of human D-542MG cell growth in a cell viability assay.
pIC50: −log10 of the molar value.

[
  {
    "molecule": "CCc1nc(N)nc(N)c1-c1ccc(Cl)cc1",
    "pIC50": "< 4.70"
  },
  {
    "molecule": "Nc1ccn([C@@H]2O[C@H](CO)[C@@H](O)[C@@H]2O)c(=O)n1",
    "pIC50": "< 5.70"
  },
  {
    "molecule": "O=c1cc(-c2cccc3c2Sc2ccccc2S3)oc(N2CCOCC2)c1",
    "pIC50": "< 5.00"
  },
  {
    "molecule": "O=C(NOCC1CC1)c1ccc(F)c(F)c1Nc1ccc(I)cc1Cl",
    "pIC50": "< 5.00"
  },
  {
    "molecule": "C=C1C(=O)O[C@@H]2C3O[C@]3(C)CC/C=C(\\C)CC[C@@H]12 (stereo not given in full)",
    "pIC50": "< 5.30"
  },
  {
    "molecule": "C[C@]1(O)C[C@@H](c2nc(-c3ccc4ccc(-c5ccccc5)nc4c3)c3c(N)nccn32)C1",
    "pIC50": "< 5.59"
  },
  {
    "molecule": "Cc1cnc(-c2cnc(NCCNc3ccc(C#N)cn3)nc2-c2ccc(Cl)cc2Cl)[nH]1",
    "pIC50": "< 5.59"
  },
  {
    "molecule": "COc1cc([C@@H]2c3cc4c(cc3[C@@H](O[C@@H]3O[C@@H]5CO[C@@H](C)O[C@H]5[C@H](O)[C@H]3O)[C@H]3COC(=O)[C@H]23)OCO4)cc(OC)c1O [ETOPOSIDE]",
    "pIC50": "< 4.80"
  },
  {
    "molecule": "COC(=O)CNC(=O)C(=O)OC",
    "pIC50": 3.25
  },
  {
    "molecule": "CN(C)C/C=C/C(=O)Nc1cc2c(Nc3ccc(F)c(Cl)c3)ncnc2cc1O[C@H]1CCOC1",
    "pIC50": "< 6.30"
  }
]

Reference for the values: ChEMBL document CHEMBL1201861
